Provenance of the data: paper PMC6044835

- Experimental system: CYP505A30 (Thermothelomyces thermophilus, UniProt G2QDZ3)
- Sequence (G2QDZ3 entry or part of it): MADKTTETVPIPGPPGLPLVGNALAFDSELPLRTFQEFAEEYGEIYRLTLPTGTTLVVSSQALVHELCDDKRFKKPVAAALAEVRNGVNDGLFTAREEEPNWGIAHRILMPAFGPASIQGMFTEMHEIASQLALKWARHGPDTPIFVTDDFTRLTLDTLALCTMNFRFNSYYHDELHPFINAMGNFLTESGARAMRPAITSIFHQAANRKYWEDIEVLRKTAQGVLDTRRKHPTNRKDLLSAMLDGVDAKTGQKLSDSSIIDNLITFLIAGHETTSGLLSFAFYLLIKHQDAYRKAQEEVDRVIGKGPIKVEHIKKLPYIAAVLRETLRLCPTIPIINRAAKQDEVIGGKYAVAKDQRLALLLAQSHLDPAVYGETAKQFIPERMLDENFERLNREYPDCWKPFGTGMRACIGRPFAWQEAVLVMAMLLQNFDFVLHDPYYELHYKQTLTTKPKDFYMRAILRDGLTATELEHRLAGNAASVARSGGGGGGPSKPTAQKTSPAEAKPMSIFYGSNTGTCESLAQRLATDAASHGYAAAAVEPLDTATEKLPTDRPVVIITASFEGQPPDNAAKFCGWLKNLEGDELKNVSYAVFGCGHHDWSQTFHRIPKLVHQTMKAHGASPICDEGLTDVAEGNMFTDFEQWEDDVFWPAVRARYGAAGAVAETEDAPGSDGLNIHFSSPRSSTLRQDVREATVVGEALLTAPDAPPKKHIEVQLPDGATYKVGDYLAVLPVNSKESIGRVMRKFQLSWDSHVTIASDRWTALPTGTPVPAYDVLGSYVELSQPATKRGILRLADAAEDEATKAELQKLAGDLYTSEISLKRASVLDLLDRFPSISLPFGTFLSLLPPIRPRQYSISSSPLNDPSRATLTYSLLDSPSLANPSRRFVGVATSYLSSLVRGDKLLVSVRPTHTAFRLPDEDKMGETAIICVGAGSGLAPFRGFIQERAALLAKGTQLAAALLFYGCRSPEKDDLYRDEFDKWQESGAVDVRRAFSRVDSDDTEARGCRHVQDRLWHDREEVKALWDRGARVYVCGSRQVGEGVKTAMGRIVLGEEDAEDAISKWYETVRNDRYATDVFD
- Assay: UV–visible spectral binding titration with intact CYP505A30
Readout: Kd (µM)
// units = µM; emit number, no label

// solved cases for Kd follow
>>> print(df.to_string())
        structure_notation  observed_measurement
0  CCCCCCCCCCCCCCCCCC(=O)O                  11.9
1     CCCCCCCCCCCCCCC(=O)O                   4.4

Lookup result for CCCCCCCCCCCCCCCCC(=O)O ; measured Kd: 4.1

====

- Experimental system: CYP505A30 (Thermothelomyces thermophilus)
- Assay: UV–visible spectral binding titration with intact CYP505A30
- Measurement parameters: KD, substrate binding to intact CYP505A30, heme absorbance change, 25 °C
Known pKd of a selection of compounds
Just the number, please; pKd means minus log10 of the concentration in mol/L.

>>> print(df.to_string())
                      structure_notation  observed_measurement
0                  CCCCCCCCCCCCCCCC(=O)O                  4.98
1  CCCCC/C=C\C/C=C\C/C=C\C/C=C\CCCC(=O)O                  5.77
2                     CCCCCCCCCCCCC(=O)O                  5.57
3                      CCCCCCCCCCCC(=O)O                  5.21

Shifting focus to the compound that follows.
Lookup result for CCCCCCCCCCCCCC(=O)O ; measured pKd: 5.13

====

Listed here: molecules with reported log10 of Kd for CYP505A30 heme domain (Thermothelomyces thermophilus, UniProt G2QDZ3).
Response schema: value (number) is log10 of Kd in units of µM.

// solved cases for log10 of Kd follow
       structure_notation      readout  observed_measurement
0  CCCCCCCCCCCCCCCCC(=O)O  log10 of Kd                  0.94
1     CCCCCCCCCCCCCC(=O)O  log10 of Kd                  0.59

Value (log10 of Kd, CYP505A30 heme domain (Thermothelomyces thermophilus, UniProt G2QDZ3)) for record CCCCC/C=C\C/C=C\C/C=C\C/C=C\CCCC(=O)O = -0.92

Value (log10 of Kd, CYP505A30 heme domain (Thermothelomyces thermophilus, UniProt G2QDZ3)) for record CCCCCCCCCCCCCCCCCC(=O)O = 0.70

Value (log10 of Kd, CYP505A30 heme domain (Thermothelomyces thermophilus, UniProt G2QDZ3)) for record CCCCCCCCCCCCCCC(=O)O = 0.04

Value (log10 of Kd, CYP505A30 heme domain (Thermothelomyces thermophilus, UniProt G2QDZ3)) for record CCCCCCCCCCCC(=O)O = 0.95

Value (log10 of Kd, CYP505A30 heme domain (Thermothelomyces thermophilus, UniProt G2QDZ3)) for record CCCCCCCCCCCCC(=O)O = 0.68

Value (log10 of Kd, CYP505A30 heme domain (Thermothelomyces thermophilus, UniProt G2QDZ3)) for record CCCCCCCCCCCCCCCC(=O)O = 0.00

====

- Experimental system: CYP505A30 (Thermothelomyces thermophilus, UniProt G2QDZ3)
- Assay: UV–visible spectral binding titration with intact CYP505A30
- Measurement parameters: extent of HS heme iron accumulated, intact CYP505A30, estimated to nearest 5%
We use 80% as the dividing line for HS (%): on or above the line is class 1, below is class 0.

>>> print(df.to_string())
                      structure_notation  assigned_label
0           CCCCCCCCCCCCCCCC(=O)NCC(=O)O         class 1
1  CCCCC/C=C\C/C=C\C/C=C\C/C=C\CCCC(=O)O         class 0
2                CCCCCCCCCCCCCCCCCC(=O)O         class 0
3                   CCCCCCCCCCCCCCC(=O)O         class 1

Let us examine a further case.
Enquiry: Threshold query (HS (%) >= 80%) on CCCCCCCCCCCCCCCCC(=O)O
Return: class 0
